Values compiled from patent US20250114374A1.

- Test system: RS4; 11 with G101V mutation
- assay_protocol: In vitro anti-proliferation assay (ATPlite luminescence) in BCL-2-dependent ALL cell line RS4;11 with G101V mutation
- Type: cell-based
- condition_notes: cellular anti-proliferative IC50, about 72 hours, medium with 10% FBS, ATPlite; read-out: RS411-G101V IC50

{"compound": "CC(C)Oc1ccccc1[C@H]1CN(C2CCC(N3CCOC[C@H]3C)CC2)CCN1C1CC2(CCN(c3ccc(C(=O)NS(=O)(=O)c4ccc(NCC5CCC(C)(O)CC5)c([N+](=O)[O-])c4)c(N4c5cc6cc[nH]c6nc5O[C@H]5COCC[C@@H]54)c3)CC2)C1 (some centres unmarked) [Example 161]", "IC50 [nM]": 18.1}
{"compound": "CC(C)Oc1ccccc1[C@@H]1CN(Cc2ccc(F)c(F)c2)CCN1C1CC2(CCN(c3ccc(C(=O)NS(=O)(=O)c4cc5c(c([N+](=O)[O-])c4)N[C@H](C4CCOCC4)CO5)c(N4c5cc6cc[nH]c6nc5O[C@@H]5COCC[C@H]54)c3)CC2)C1 [Example 239]", "IC50 [nM]": 7.1}
{"compound": "COc1cc(CN2CCN(C3CC4(CCN(c5ccc(C(=O)NS(=O)(=O)c6ccc(NCC7CCC(C)(O)CC7)c([N+](=O)[O-])c6)c(N6c7cc8c(F)c[nH]c8nc7O[C@H]7COCC[C@@H]76)c5)CC4)C3)[C@@H](c3ccccc3OC(C)C)C2)cnc1N1CCOCC1 (some centres unmarked) [Example 122]", "IC50 [nM]": 10}
{"compound": "COc1ccc(CN2CCN(C3CC4(CCN(c5ccc(C(=O)NS(=O)(=O)c6ccc(NCC7CCC(C)(O)CC7)c([N+](=O)[O-])c6)c(N6c7cc8cc[nH]c8nc7O[C@H]7COCC[C@@H]76)c5)CC4)C3)[C@@H](c3ccccc3OC(C)C)C2)cn1 (some centres unmarked) [Example 102]", "IC50 [nM]": 18}
{"compound": "COc1cc(CN2CCN(C3CC4(CCN(c5ccc(C(=O)NS(=O)(=O)c6ccc(NCC7CCC(C)(O)CC7)c([N+](=O)[O-])c6)c(N6c7cc8cc[nH]c8nc7O[C@H]7COCC[C@@H]76)c5)CC4)C3)[C@H](c3ccccc3C)C2)cnc1N1CCOCC1 (some centres unmarked) [Example 124]", "IC50 [nM]": 2}
{"compound": "Cc1cc2c(CN3CCN(C4CC5(CCN(c6ccc(C(=O)NS(=O)(=O)c7ccc(NCC8CCC(C)(O)CC8)c([N+](=O)[O-])c7)c(N7c8cc9cc[nH]c9nc8O[C@H]8COCC[C@@H]87)c6)CC5)C4)[C@@H](c4ccccc4OC(C)C)C3)cnc(N3CCOCC3)c2o1 (some centres unmarked) [Example 147]", "IC50 [nM]": 31.9}
{"compound": "CC(C)Oc1ccccc1[C@@H]1CN(Cc2ccc(F)c(F)c2)CCN1C1CC2(CCN(c3cc(N4c5cc6cc[nH]c6nc5O[C@H]5COCC[C@@H]54)c(C(=O)NS(=O)(=O)c4cc5c(c([N+](=O)[O-])c4)N[C@H](C4CCOCC4)CO5)cc3F)CC2)C1 [Example 227]", "IC50 [nM]": 119}
{"compound": "COc1ncc(CN2CCN(C3CC4(CCN(c5ccc(C(=O)NS(=O)(=O)c6ccc(NCC7CCC(C)(O)CC7)c([N+](=O)[O-])c6)c(N6c7cc8cc[nH]c8nc7O[C@H]7COCC[C@@H]76)c5)CC4)C3)[C@@H](c3ccccc3OC(C)C)C2)cc1N1CCOCC1 (some centres unmarked) [Example 163]", "IC50 [nM]": 27.9}
